Data origin: ChEMBL document CHEMBL1135663

# measuredTarget: Delta-type opioid receptor (Homo sapiens, UniProt P41143)
# Sequence (P41143 whole entry): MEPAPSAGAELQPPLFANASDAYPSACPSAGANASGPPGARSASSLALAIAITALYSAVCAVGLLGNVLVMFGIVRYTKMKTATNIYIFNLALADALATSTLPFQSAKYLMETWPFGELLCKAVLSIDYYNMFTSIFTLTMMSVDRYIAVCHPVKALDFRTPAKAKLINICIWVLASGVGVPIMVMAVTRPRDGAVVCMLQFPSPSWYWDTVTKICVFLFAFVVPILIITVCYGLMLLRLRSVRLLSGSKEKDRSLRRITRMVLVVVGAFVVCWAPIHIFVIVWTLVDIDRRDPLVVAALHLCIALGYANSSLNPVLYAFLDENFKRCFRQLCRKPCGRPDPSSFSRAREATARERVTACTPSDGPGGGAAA
# methodSummary: Binding affinity for opioid receptor type, human Opioid receptor delta 1 expressed in membrane homogenates of COS-1 or CHO cells
# Assay type: cell-based
# testContext: cos-1
Parameter: pKi. Scope: all listed entries.
Entry type: numeric. Quantity: pKi, the -log10 of concentration in molar units.

For orientation, consider the following solved cases.
| compound | pKi |
| --- | --- |
| CC(=O)N[C@@H](CCCN=C(N)N)C(=O)NC(CC1CCCCC1)C(=O)N[C@H]1CC[C@@H]2SC[C@H](C(=O)N[C@H](CCCN=C(N)N)C(=O)NC(Cc3ccc(Cl)cc3)C(N)=O)N2C1=O (stereo in doubt) | 6.65 |
| CC(=O)N[C@@H](CCCNC(=N)N)C(=O)N[C@H](CC1CCCCC1)C(=O)N[C@H]1CC[C@H]2CC[C@@H](C(=O)N[C@H](CCCNC(=N)N)C(=O)N[C@H](Cc3ccc(Cl)cc3)C(N)=O)N2C1=O | 5.28 |

# next compound below
API: value(readout= pKi, system= Delta-type opioid receptor (Homo sapiens, UniProt P41143), query= `CC(=O)N[C@@H](CCCN=C(N)N)C(=O)N[C@H](CC1CCCCC1)C(=O)N[C@H]1C[C@H]2CCC[C@@H](C(=O)N[C@H](CCCN=C(N)N)C(=O)N[C@H](Cc3ccc(Cl)cc3)C(N)=O)N2C1=O` )
4.96
